These entries and their values trace back to patent US20170088545A1.

target: Smurf-2 (Homo sapiens, UniProt Q9HAU4)
Sequence (Q9HAU4 whole entry, species assumed): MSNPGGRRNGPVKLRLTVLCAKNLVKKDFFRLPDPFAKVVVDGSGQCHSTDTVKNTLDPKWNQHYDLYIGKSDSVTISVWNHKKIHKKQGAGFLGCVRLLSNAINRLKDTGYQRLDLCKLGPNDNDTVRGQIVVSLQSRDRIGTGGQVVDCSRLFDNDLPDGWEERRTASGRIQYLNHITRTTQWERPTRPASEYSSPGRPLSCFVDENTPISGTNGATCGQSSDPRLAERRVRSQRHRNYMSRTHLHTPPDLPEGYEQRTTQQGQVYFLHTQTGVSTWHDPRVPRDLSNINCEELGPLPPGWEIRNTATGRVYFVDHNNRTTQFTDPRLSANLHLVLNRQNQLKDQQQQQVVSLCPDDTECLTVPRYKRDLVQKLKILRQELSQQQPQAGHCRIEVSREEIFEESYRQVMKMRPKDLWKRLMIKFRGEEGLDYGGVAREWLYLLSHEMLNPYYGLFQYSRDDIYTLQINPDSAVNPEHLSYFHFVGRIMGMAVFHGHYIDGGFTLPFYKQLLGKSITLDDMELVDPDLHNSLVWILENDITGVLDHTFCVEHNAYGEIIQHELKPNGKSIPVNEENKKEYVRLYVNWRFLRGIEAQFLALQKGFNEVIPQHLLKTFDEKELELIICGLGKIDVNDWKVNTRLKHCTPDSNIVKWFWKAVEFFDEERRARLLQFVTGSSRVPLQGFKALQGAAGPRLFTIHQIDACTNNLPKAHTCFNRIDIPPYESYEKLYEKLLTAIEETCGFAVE
outcome measure: IC50 (µM)

compound	outcome measure	measured result
Cc1c(C(=O)Nc2c(C)n(C)n(C3CCCCC3)c2=O)noc1-c1ccc(Cl)cc1F [Example 057]	IC50	7.5
Cc1c(C(=O)Nc2c(C)n(C)n(C3CCCCC3)c2=O)noc1-c1ccc(Cl)cc1C1CC1 [Example 069]	IC50	3.2

(a) COc1ccc(-c2onc(C(=O)Nc3c(C)n(C)n(C4CCCCC4)c3=O)c2C)cc1C [Example 048]
(b) Cc1c(NC(=O)c2noc(-c3ccc(Cl)cc3Cl)c2C#N)c(=O)n(-c2ccccc2F)n1C [Example 042]
(c) Cc1c(NC(=O)c2noc(-c3ccc(Cl)cc3Cl)c2C2CC2)c(=O)n(C2CCCCC2)n1C [Example 039]
(d) COc1ccc(-c2onc(C(=O)Nc3c(C)n(C)n(C4CCCCC4)c3=O)c2Br)c(Cl)c1 [Example 034]
Ascending by IC50, please. Answer by listing the labels in the requested order.
a, d, c, b
(a: 2.4 µM, d: 5.23 µM, c: 7.5 µM, b: 19.2 µM)

====

molecular target: Smurf-1 (Homo sapiens)
Sequence (Q9HCE7 whole entry): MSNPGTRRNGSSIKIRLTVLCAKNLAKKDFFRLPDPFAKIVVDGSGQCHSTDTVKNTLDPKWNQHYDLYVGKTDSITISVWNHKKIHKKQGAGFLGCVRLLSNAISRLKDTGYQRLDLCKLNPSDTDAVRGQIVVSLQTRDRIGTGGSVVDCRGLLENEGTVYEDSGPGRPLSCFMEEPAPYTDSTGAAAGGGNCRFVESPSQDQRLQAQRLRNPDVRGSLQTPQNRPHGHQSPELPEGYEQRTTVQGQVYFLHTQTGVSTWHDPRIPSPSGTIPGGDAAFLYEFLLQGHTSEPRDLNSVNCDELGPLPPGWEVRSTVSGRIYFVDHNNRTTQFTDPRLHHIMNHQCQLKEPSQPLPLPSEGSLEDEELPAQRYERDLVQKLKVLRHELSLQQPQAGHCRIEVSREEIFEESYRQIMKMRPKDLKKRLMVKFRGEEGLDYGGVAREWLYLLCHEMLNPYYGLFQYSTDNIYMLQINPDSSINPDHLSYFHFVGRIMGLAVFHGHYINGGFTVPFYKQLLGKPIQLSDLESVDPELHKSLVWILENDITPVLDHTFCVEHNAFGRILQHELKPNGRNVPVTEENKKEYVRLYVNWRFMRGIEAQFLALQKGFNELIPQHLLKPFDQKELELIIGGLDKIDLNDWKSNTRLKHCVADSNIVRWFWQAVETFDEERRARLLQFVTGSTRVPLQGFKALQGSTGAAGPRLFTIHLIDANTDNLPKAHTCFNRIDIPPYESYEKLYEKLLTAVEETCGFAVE
pIC50: −log10 of the molar value.
outcome measure: pIC50

# example entries with known answers
molecule	pIC50
COc1ccc(-c2onc(C(=O)Nc3c(C)n(C)n(-c4ccccc4F)c3=O)c2C)c(Cl)c1 [Example 006]	7.63
COc1c(C)cccc1-c1onc(C(=O)Nc2c(C)n(C)n(C3CCCCC3)c2=O)c1C [Example 070]	7.48
Cc1c(C(=O)Nc2c(C)n(C)n(-c3ccccc3F)c2=O)noc1-c1ccc2c(c1)CCO2 [Example 062]	6.02
Cc1cc(C)c(-c2onc(C(=O)Nc3c(C)n(C)n(-c4ccccc4F)c3=O)c2C)c(C)c1 [Example 083]	5.64
COc1ccc(-c2onc(C(=O)Nc3c(C)n(C)n(-c4ccccc4F)c3=O)c2C)c(C(F)(F)F)c1 [Example 013]	6.99
Cc1c(C(=O)Nc2c(C)n(C)n(C3CCCCC3)c2=O)noc1-c1cccc2c1OCCC2 [Example 075]	6.05

(A) Cc1c(NC(=O)c2noc(-c3ccc(Cl)cc3Cl)c2C#N)c(=O)n(-c2ccccc2F)n1C [Example 042]
(B) Cc1c(C(=O)Nc2c(C)n(C)n(-c3ccccc3F)c2=O)noc1-c1ccc(C2CC2)cc1Cl [Example 002]
Lab note: check whether A or B shows the higher recorded pIC50. Output the label that corresponds to your choice.
B
(B: 7.87, A: 6.35)

====

target: Smurf-2 (Homo sapiens); experiment: HECT E3 ligase autoubiquitinylation TR-FRET assay, Smurf-2; assay type: biochemical; conditions: 45 min incubation, 8-point dose-response
outcome measure: IC50 (µM)

Cc1c(NC(=O)c2noc(-c3ccc(C4CC4)cc3Cl)c2Cl)c(=O)n(-c2ccccc2F)n1C 5.4
Cc1c(C(=O)Nc2c(C)n(C)n(C3CCCCC3)c2=O)noc1-c1ccc2occc2c1 5

====

target: Smurf-2 (Homo sapiens, UniProt Q9HAU4)
pIC50: −log10 of the molar value.
outcome measure: pIC50

# example entries with known answers
Cc1c(C(=O)Nc2c(C)n(C)n(C3CCCCC3)c2=O)noc1-c1ccc(OCC2CC2)cc1Cl < 4.69
COc1ccc(-c2onc(C(=O)Nc3c(C)n(C)n(C4CCCCC4)c3=O)c2C2CC2)c(F)c1 < 4.69
COc1ccc(-c2onc(C(=O)Nc3c(C)n(C)n(-c4ccccc4F)c3=O)c2Cl)c(F)c1Cl < 5.00
COc1ccc(-c2onc(C(=O)Nc3c(C)n(C)n(-c4ccccc4F)c3=O)c2F)c(Cl)c1 < 4.70
Cc1c(C(=O)Nc2c(C)n(C)n(-c3ccccc3F)c2=O)noc1-c1ccc(N(C)C)cc1 < 5.00

Continue with the compound presented below.
Name the recorded pIC50 for Cc1c(C(=O)Nc2c(C)n(C)n(C3CCCCC3)c2=O)noc1-c1cccc(F)c1F .
< 4.69
